Data credit: paper PMC11546786

Parameter TI (MHC/MIC): see the listing below.
# System: human erythrocytes versus five bacterial strains
# protocol notes: Therapeutic index (MHC/GM of MIC)
# conditions used: ratio of MHC to geometric mean of MIC (five strains)
Ends that are not written are not given here.

substance: LKRVWKRVKKLLKRYWRQLKKPVR-NH2 [SAAP-5]
TI (MHC/MIC): 1.15
//
substance: LKRVWKRVFKLLKRKWRQLKKPVR-NH2 [SAAP-8]
TI (MHC/MIC): 0.66
//
substance: LKRVWKRVFKLLKRYKRQLKKPVR-NH2 [SAAP-9]
TI (MHC/MIC): 1.00
//
substance: LKRVWKRVFKLLKRYWRQKKKPVR-NH2 [SAAP-11]
TI (MHC/MIC): 0.05
//
substance: KKRVWKRVFKLLKRYWRQLKKPVR-NH2 [SAAP-1]
TI (MHC/MIC): 0.12
//
substance: LKRVWKRVFKLLKRYWRQLKKPKR-NH2 [SAAP-13]
TI (MHC/MIC): 0.05
//
substance: LKRVWKRVFKKLKRYWRQLKKPVR-NH2 [SAAP-6]
TI (MHC/MIC): 1.74
//
substance: LKRVWKRKFKLLKRYWRQLKKPVR-NH2 [SAAP-4]
TI (MHC/MIC): 9.19

----------
# Test system: Klebsiella pneumonia (1.1736)
# Assay type: cell-based, Klebsiella pneumoniae
Ends that are not written are not given here.

substance: LKRVWKRVFKLLKRYWRQLKKPKR-NH2 [SAAP-13]
MIC K. pneumoniae, µM: 25.00

substance: LKRVWKRVFKKLKRYWRQLKKPVR-NH2 [SAAP-6]
MIC K. pneumoniae, µM: 6.25

substance: LKRVWKRVKKLLKRYWRQLKKPVR-NH2 [SAAP-5]
MIC K. pneumoniae, µM: 6.25

substance: LKRVWKRVFKLLKRYKRQLKKPVR-NH2 [SAAP-9]
MIC K. pneumoniae, µM: 12.50

substance: LKRVWKRVFKLLKRYWRQLKKPVR-NH2 [SAAP-148]
MIC K. pneumoniae, µM: 6.25

substance: LKRKWKRVFKLLKRYWRQLKKPVR-NH2 [SAAP-2]
MIC K. pneumoniae, µM: 12.50

substance: LKRVWKRVFKLKKRYWRQLKKPVR-NH2 [SAAP-7]
MIC K. pneumoniae, µM: 100.00

substance: LKRVKKRVFKLLKRYWRQLKKPVR-NH2 [SAAP-3]
MIC K. pneumoniae, µM: 6.25

----------
# protocol notes: Reversed-phase HPLC retention time as measure of peptide hydrophobicity
# Type: physicochemical
# conditions used: retention time by reverse-phase HPLC, reflects hydrophobicity difference between analogues
Ends that are not written are not given here.
Parameter Rt: see the listing below.
property name: Rt (min)

substance: LKRVWKRVFKLLKRYWRQLKKPKR-NH2 [SAAP-13]
numeric result: 16.867
--
substance: LKRVWKRVFKLLKRKWRQLKKPVR-NH2 [SAAP-8]
numeric result: 13.475
--
substance: LKRVWKRVFKLLKRYWRQLKKPVR-NH2 [SAAP-148]
numeric result: 12.416
--
substance: LKRVWKRVFKLLKRYKRQLKKPVR-NH2 [SAAP-9]
numeric result: 11.941
--
substance: LKRVWKRKFKLLKRYWRQLKKPVR-NH2 [SAAP-4]
numeric result: 9.96
--
substance: LKRVWKRVFKLKKRYWRQLKKPVR-NH2 [SAAP-7]
numeric result: 12.897
--
substance: LKRVKKRVFKLLKRYWRQLKKPVR-NH2 [SAAP-3]
numeric result: 11.208
--
substance: KKRVWKRVFKLLKRYWRQLKKPVR-NH2 [SAAP-1]
numeric result: 11.419
--
substance: LKRVWKRVFKLLKRYWRQLKKKVR-NH2 [SAAP-12]
numeric result: 16.604
--
substance: LKRVWKRVFKLLKRYWRQKKKPVR-NH2 [SAAP-11]
numeric result: 15.926
--
substance: LKRVWKRVFKLLKRYWRKLKKPVR-NH2 [SAAP-10]
numeric result: 13.69
